These measurements were taken from patent US20120094909A1.

Test Target: T1, human PCSK9 (proprotein convertase subtilisin kexin type 9) (human, UniProt Q8NBP7 31-692)
T1 construct: Directly immobilized (SPR ProteOn), biotinylated (BLI), or in solution, depending on the assay; also called hPCSK9
T1 sequence (Q8NBP7 31-692 limits assumed): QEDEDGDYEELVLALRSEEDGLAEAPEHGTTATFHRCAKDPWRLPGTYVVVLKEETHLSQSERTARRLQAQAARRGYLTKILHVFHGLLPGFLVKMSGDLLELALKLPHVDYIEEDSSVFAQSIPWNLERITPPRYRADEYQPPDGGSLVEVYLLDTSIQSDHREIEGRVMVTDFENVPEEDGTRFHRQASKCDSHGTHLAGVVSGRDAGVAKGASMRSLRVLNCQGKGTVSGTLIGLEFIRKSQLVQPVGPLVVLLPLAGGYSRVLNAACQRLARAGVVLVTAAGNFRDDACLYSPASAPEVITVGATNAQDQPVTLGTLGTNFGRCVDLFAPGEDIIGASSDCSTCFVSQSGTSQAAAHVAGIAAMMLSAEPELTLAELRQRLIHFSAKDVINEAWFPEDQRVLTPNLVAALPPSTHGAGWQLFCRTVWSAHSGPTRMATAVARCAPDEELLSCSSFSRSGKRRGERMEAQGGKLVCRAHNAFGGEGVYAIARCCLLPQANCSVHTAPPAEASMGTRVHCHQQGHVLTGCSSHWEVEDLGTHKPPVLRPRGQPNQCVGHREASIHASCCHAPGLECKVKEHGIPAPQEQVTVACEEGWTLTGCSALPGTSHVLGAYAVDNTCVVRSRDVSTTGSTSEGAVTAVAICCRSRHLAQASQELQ
Method Description: FRET direct binding, anti-his6 antibody
Overview of recorded pEC50 for various binders
Answer as the number alone; pEC50 is minus log10 of concentration in mol/L.

Reference set, count: 2
2382E05 (designed binder, Anti-PCSK9 Adnectin, His6-tagged) MGVSDVPRDLEVVAATPTSLLISWDAPAEGGYGYYRITYGETGGNSPVQEFTVPVSKGTATISGLKPGVDYTITVYAVEFDFPGAGYYHRPISINYRTEIDKPSQHHHHHH ... 8.42
2382H10 (designed binder, Anti-PCSK9 Adnectin, His6-tagged) MGVSDVPRDLEVVAATPTSLLISWDAPAGGYGYYRITYGETGGNSPVQEFTVPVSKGTATISGLKPGVDYTITVYAVEFDFPGSGYYHRPISINYRTEIDKPSQHHHHHH ... 8.34

Give the reported pEC50 for this binder. 1923B02 (designed binder, Anti-PCSK9 Adnectin, His6-tagged) MGVSDVPRDLEVVAATPTSLLISWTPPPKGYGYYRITYGETGGNSPVQEFTVPVGEGTATISGLKPGVDYTITVYAVEYTYNGAGYYHRPISINYRTEIDKPSQHHHHHH
8.49
